procedure.details: Plasma PK
Assay type: in vivo, Sprague-Dawley rats
setup.conditions: Sprague-Dawley; rat plasma, oral gavage, nominal dose 30 mg/kg, mean of n=3, sampling 0.5-4 h
outcome.measure: Cmax

CN1Cc2c(Cl)cc(Cl)cc2[C@H](c2cccc(S(=O)(=O)NCCOCCOCCNC(=O)CCC(CCC(=O)NCCOCCOCCNS(=O)(=O)c3cccc([C@@H]4CN(C)Cc5c(Cl)cc(Cl)cc54)c3)(CCC(=O)NCCOCCOCCNS(=O)(=O)c3cccc([C@@H]4CN(C)Cc5c(Cl)cc(Cl)cc54)c3)NC(=O)NCC(=O)O)c2)C1 ... < 2 ng/mL
CN1Cc2c(Cl)cc(Cl)cc2[C@H](c2cccc(S(=O)(=O)NCCOCCOCCOCCNC(=O)NCCN(CCNC(=O)NCCOCCOCCOCCNS(=O)(=O)c3cccc([C@@H]4CN(C)Cc5c(Cl)cc(Cl)cc54)c3)CCNC(=O)NCCOCCOCCOCCNS(=O)(=O)c3cccc([C@@H]4CN(C)Cc5c(Cl)cc(Cl)cc54)c3)c2)C1 ... < 5 ng/mL
CN1Cc2c(Cl)cc(Cl)cc2[C@H](c2cccc(S(=O)(=O)NCCOCCOCCNC(=O)CCC(N)(CCC(=O)NCCOCCOCCNS(=O)(=O)c3cccc([C@@H]4CN(C)Cc5c(Cl)cc(Cl)cc54)c3)CCC(=O)NCCOCCOCCNS(=O)(=O)c3cccc([C@@H]4CN(C)Cc5c(Cl)cc(Cl)cc54)c3)c2)C1 ... < 4 ng/mL

For the compound CN1Cc2c(Cl)cc(Cl)cc2[C@H](c2cccc(S(=O)(=O)NCCOCCOCCNC(=O)CCC(CCC(=O)NCCOCCOCCNS(=O)(=O)c3cccc([C@@H]4CN(C)Cc5c(Cl)cc(Cl)cc54)c3)(CCC(=O)NCCOCCOCCNS(=O)(=O)c3cccc([C@@H]4CN(C)Cc5c(Cl)cc(Cl)cc54)c3)N(C)C)c2)C1 , report Cmax.
< 5 ng/mL
